The origin of these recorded values is patent US20120270237A9.

# assay system: IRAK1 (Homo sapiens, UniProt P51617)
# Sequence (P51617 whole entry): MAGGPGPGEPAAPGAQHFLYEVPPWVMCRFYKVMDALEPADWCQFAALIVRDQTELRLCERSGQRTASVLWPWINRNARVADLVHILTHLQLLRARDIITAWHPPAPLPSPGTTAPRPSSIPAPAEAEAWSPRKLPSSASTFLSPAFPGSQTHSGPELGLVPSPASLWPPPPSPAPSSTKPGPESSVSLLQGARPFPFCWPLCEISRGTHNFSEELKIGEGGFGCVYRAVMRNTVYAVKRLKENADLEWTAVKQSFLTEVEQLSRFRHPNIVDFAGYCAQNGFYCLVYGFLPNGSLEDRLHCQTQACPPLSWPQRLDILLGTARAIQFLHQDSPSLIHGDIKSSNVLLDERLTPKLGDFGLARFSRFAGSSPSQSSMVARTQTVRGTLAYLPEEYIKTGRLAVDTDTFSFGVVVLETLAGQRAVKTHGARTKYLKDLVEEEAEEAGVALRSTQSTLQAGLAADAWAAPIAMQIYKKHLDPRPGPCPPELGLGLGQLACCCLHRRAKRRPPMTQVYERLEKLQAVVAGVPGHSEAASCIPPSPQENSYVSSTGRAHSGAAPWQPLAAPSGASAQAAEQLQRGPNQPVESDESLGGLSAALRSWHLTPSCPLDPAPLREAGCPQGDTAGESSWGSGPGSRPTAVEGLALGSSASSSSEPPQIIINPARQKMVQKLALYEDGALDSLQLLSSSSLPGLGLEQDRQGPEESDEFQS
# experiment notes: Competition binding assay in HL60 cell lysate, antibody detection
# test context: dose response curve, anti-IRAK1 antibody
attribute measured: IC50 (nM)
Note: unit nM is implicit; provide only the numeric part.

Note down IC50 recorded for CS(=O)(=O)Nc1ccccc1Nc1nc(Nc2cccc(OCCN)c2)ncc1Cl [CZC31326]
150
